Reference for the values: ChEMBL document CHEMBL1146197

Tested on: Escherichia coli
Experiment: Activity of Escherichia coli BL21(DE3) beta-lactamase TEM1
Below, each of the compounds is paired with its reported kcat/Km value.
Give the value, in units of M⁻¹ s⁻¹, as a plain number.

>  <COMPOUND>
CC(=O)OCC1=C(C(=O)O)N2C(=O)[C@@H](NC(=O)Cc3cccs3)[C@H]2SC1 [CEPHALOTHIN]

>  <MEASURED_RESULT>
700000

$$$$
>  <COMPOUND>
CC1(C)S[C@@H]2[C@H](NC(=O)[C@H](C(=O)O)c3ccsc3)C(=O)N2[C@H]1C(=O)O [TICARCILLIN]

>  <MEASURED_RESULT>
3.8e+06

$$$$
>  <COMPOUND>
CC1(C)S[C@@H]2[C@H](NC(=O)[C@H](N)c3ccc(O)cc3)C(=O)N2[C@H]1C(=O)O [AMOXICILLIN]

>  <MEASURED_RESULT>
7.5e+07

$$$$

// query GET /values?readout=kcat/Km&system=Escherichia coli&item= CCN1CCN(C(=O)N[C@@H](C(=O)N[C@@H]2C(=O)N3[C@@H]2SC(C)(C)[C@@H]3C(=O)O)c2ccccc2)C(=O)C1=O [PIPERACILLIN]
// result 2.3e+06

* * *

Test system: Escherichia coli
Experiment: Activity of Escherichia coli BL21(DE3) beta-lactamase TEM152
Below, each of the compounds is paired with its reported kcat/Km value.
Give the value, in units of M⁻¹ s⁻¹, as a plain number.

In the examples that follow, each entry is paired with its recorded kcat/Km.
>  <COMPOUND>
C[C@H]1[C@H](NC(=O)/C(=N\OC(C)(C)C(=O)O)c2csc(N)n2)C(=O)N1S(=O)(=O)O (stereo in doubt)

>  <kcat/Km / M⁻¹ s⁻¹>
160000

$$$$
>  <COMPOUND>
CO/N=C(\C(=O)N[C@@H]1C(=O)N2C(C(=O)[O-])=C(C[N+]3(C)CCCC3)CS[C@H]12)c1csc(N)n1

>  <kcat/Km / M⁻¹ s⁻¹>
60000

$$$$
>  <COMPOUND>
CO/N=C(\C(=O)N[C@@H]1C(=O)N2C(C(=O)O)=C(COC(C)=O)CS[C@H]12)c1csc(N)n1

>  <kcat/Km / M⁻¹ s⁻¹>
30000

$$$$
>  <COMPOUND>
CC(C)(O/N=C(\C(=O)N[C@@H]1C(=O)N2C(C(=O)[O-])=C(C[n+]3ccccc3)CS[C@H]12)c1csc(N)n1)C(=O)O

>  <kcat/Km / M⁻¹ s⁻¹>
70000

$$$$
>  <COMPOUND>
CCN1CCN(C(=O)N[C@@H](C(=O)N[C@@H]2C(=O)N3[C@@H]2SC(C)(C)[C@@H]3C(=O)O)c2ccccc2)C(=O)C1=O

>  <kcat/Km / M⁻¹ s⁻¹>
6.12e+06

$$$$

// query kcat/Km lookup needed for CC(=O)OCC1=C(C(=O)O)N2C(=O)[C@@H](NC(=O)Cc3cccs3)[C@H]2SC1 , thanks.
// result 20000

// query kcat/Km lookup needed for CC1(C)S[C@@H]2[C@H](NC(=O)[C@H](N)c3ccc(O)cc3)C(=O)N2[C@H]1C(=O)O , thanks.
// result 5.4e+06

// query kcat/Km lookup needed for CC1(C)S[C@@H]2[C@H](NC(=O)[C@H](C(=O)O)c3ccsc3)C(=O)N2[C@H]1C(=O)O , thanks.
// result 1.4e+06
